# TGT: 17β-hydroxysteroid dehydrogenase type 3 (17β-HSD type 3) (Homo sapiens, UniProt P37058)
# Construct: expressed in transfected cells; host or cells: MCF-7
# Sequence (P37058 1-310): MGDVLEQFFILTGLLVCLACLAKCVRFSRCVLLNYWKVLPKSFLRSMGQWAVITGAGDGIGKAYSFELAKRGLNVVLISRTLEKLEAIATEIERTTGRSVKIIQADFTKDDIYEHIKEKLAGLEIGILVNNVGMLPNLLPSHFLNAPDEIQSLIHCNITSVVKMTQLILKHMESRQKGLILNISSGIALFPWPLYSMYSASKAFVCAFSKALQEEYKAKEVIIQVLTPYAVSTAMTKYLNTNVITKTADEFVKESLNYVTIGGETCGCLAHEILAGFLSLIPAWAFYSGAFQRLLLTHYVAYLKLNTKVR
# PROTOCOL DETAILS: Inhibition of 17β-HSD type 3 in MCF-7 cells stably expressing the isoenzyme (tritium labeled androstenedione conversion, HPLC)
# Assay type: cell-based
# STUDY CONDITIONS: 10 μM test compound; MCF-7 cells expressing 17β-HSD type 3; 2 nM tritium labeled androstenedione
Attribute: % Inhibition HSD3 10 μM
I'd appreciate it if you included the unit after the number.

Observe how each entry below is paired with its result.
COMPOUND | % Inhibition HSD3 10 μM
CCCCC(CC)c1nc2sc3c(O)cccc3c2c(=O)n1CCc1ccccc1 (stereo not shown) | 36.1%
O=c1c2c(nc(Cc3ccccc3)n1Cc1ccccc1)sc1c(O)cccc12 | 19.9%
CCCCC(CC)c1nc2sc3c(O)cccc3c2c(=O)n1CCc1cccs1 (stereo not shown) | 19.8%
CCCCn1c(CCC2CCCC2)nc2sc3c(O)cccc3c2c1=O | 56.4%
CC(C)=Cc1nc2sc3c(O)cccc3c2c(=O)n1CCc1cccs1 | 70.1%

Record request: % Inhibition HSD3 10 μM value, item O=c1c2c(nc(CCC3CCCC3)n1CCc1cccs1)sc1c(O)cccc12 46.1%

Also check O=c1c2c(nc(CCc3ccccc3)n1Cc1ccccc1)sc1c(O)cccc12 76.1%

Also O=c1c2c(nc(CCc3ccccc3)n1CCc1cccs1)sc1c(O)cccc12 , if possible. 76.2%

Then CCCCC(CC)c1nc2sc3c(O)cccc3c2c(=O)n1CCCC (stereo not shown) ? 62.5%

Repeat with COCc1nc2sc3c(O)cccc3c2c(=O)n1CCc1ccccc1 35.9%

Moving on to the next compound: COCc1nc2sc3c(O)cccc3c2c(=O)n1CCc1cccs1 22.7%

Also need O=c1c2c(nc(Cc3ccccc3)n1CCc1cccs1)sc1c(O)cccc12 , thanks. 55.7%

Ok, now O=c1c2c(nc(-c3ccc(F)cc3F)n1CCc1ccccc1)sc1c(O)cccc12 35.4%

Same lookup for O=c1c2c(nc(CCC3CCCC3)n1CCc1ccccc1)sc1c(O)cccc12 , please. 33.9%

And the next one, CC(C)=Cc1nc2sc3c(O)cccc3c2c(=O)n1Cc1ccccc1 ? 37.0%

Then this compound: CCCCC(CC)c1nc2sc3c(O)cccc3c2c(=O)n1Cc1ccccc1 (stereo not shown) 45.6%

---

# TGT: 17β-hydroxysteroid dehydrogenase type 1 (17β-HSD type 1) (Homo sapiens, UniProt P14061)
# Construct: expressed in transfected cells; host or cells: MCF-7
# Sequence (P14061 whole entry): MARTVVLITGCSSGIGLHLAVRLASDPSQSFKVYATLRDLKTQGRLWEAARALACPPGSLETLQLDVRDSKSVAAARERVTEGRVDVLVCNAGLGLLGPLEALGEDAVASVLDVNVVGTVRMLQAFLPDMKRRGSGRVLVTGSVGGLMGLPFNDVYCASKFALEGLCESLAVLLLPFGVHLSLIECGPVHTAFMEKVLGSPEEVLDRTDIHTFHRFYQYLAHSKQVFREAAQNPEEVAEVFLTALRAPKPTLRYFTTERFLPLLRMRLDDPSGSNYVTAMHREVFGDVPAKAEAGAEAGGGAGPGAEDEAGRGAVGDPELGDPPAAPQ
# PROTOCOL DETAILS: Inhibition of 17β-HSD type 1 in MCF-7 cells stably expressing the isoenzyme (tritium labeled estrone conversion, HPLC)
# Type: cell-based
# STUDY CONDITIONS: MCF7; 1 μM test compound; MCF-7 cells expressing 17β-HSD type 1; 2 nM tritium labeled estrone; read-out: % Inhibition HSD1 1 μM
# Source text: Biological Testing Materials and Methods 1. Inhibition of the 17β-hydroxysteroid dehydrocienase type 1, type 2 and type 3 enzyme The compounds were screened in respect of 17β-HSD enzyme activity in vitro on established MCF-7 cell lines, each stably expressing one of the respective 17β-HSD isoenzymes. The interconversion of substrate by each isoenzyme and the 17β-HSD inhibiting activity of chemical compounds in these cell lines were detected by HPLC system. […]
MEASUREMENT NAME: inhibition at 1 µM (%)
Please state the figure in %; there is no need to write the unit.

COMPOUND | MEASUREMENT NAME | READING
O=C(OCCn1c(-c2cccs2)nc2sc3c(c2c1=O)CCC(Br)(Br)C3=O)c1cccs1 [No. 72] | inhibition at 1 µM | 15.3

Record COc1cc(-c2nc3sc4c(c3c(=O)n2Cc2ccccc2)CCCC4)cc(OC)c1OC [No. 1] : what is its inhibition at 1 µM with 17β-hydroxysteroid dehydrogenase type 1 (17β-HSD type 1) (Homo sapiens, UniProt P14061)? 0.8

Now consider O=C(OCCn1c(-c2cccs2)nc2sc3c(O)cccc3c2c1=O)c1cccs1 [No. 73] and answer again. 26.8

---

# TGT: 17β-hydroxysteroid dehydrogenase type 2 (17β-HSD type 2) (Homo sapiens, UniProt P37059)
# Construct: expressed in transfected cells; host or cells: MCF-7
# Sequence (P37059 whole entry): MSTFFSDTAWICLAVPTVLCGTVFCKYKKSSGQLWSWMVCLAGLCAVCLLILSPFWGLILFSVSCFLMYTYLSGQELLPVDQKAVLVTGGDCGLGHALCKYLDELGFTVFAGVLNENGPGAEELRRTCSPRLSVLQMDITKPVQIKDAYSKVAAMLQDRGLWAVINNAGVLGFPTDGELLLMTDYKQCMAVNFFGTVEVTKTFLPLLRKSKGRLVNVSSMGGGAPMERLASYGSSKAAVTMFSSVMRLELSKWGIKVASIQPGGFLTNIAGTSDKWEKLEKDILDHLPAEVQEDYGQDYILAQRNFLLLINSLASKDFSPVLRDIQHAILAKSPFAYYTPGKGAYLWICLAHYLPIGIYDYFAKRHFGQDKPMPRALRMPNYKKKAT
# PROTOCOL DETAILS: Inhibition of 17β-HSD type 2 in MCF-7 cells stably expressing the isoenzyme (tritium labeled estradiol conversion, HPLC)
# Format: cell-based
# STUDY CONDITIONS: MCF7; 10 μM test compound; MCF-7 cells expressing 17β-HSD type 2; 2 nM tritium labeled estradiol; read-out: % Inhibition HSD2 10 μM
Below, each entry is listed with its recorded inhibition at 10 µM.
I only need the number, in %, no unit after it.

For orientation, consider the following solved cases.
COMPOUND | inhibition at 10 µM (%)
COCCn1c(-c2cc(OC)c(OC)c(OC)c2Br)nc2sc3c(O)cccc3c2c1=O | 46.3
CCCCn1c(-c2cc(OC)c(OC)c(OC)c2)nc2sc3c(O)c(Br)ccc3c2c1=O | 22
COc1cc(-c2nc3sc4c(O)c(Br)ccc4c3c(=O)n2Cc2ccccc2)c(Br)c(OC)c1OC | 19.1

I would be grateful if you could share the reported inhibition at 10 µM for COc1cc(-c2nc3sc4c(c3c(=O)n2Cc2ccccc2)CCC(C=O)=C4Sc2ccccc2)cc(OC)c1OC . 17.1

Same read-out for COc1cc(-c2nc3sc4c(c3c(=O)n2Cc2ccccc2)CCCC4)cc(OC)c1OC ? 17.4

Let us now turn to CCC(C)Cn1c(-c2cc(OC)c(OC)c(OC)c2Cl)nc2sc3c(O)cccc3c2c1=O (centres unmarked) 17.7

Moving on to the next compound: CCC(C)Cn1c(-c2cc(OC)c(OC)c(OC)c2)nc2sc3c(c2c1=O)CCCC3=O (centres unmarked) -9

Also need CCCCn1c(-c2cc(OC)c(OC)c(OC)c2)nc2sc3c(c2c1=O)CCCC3=O , thanks. 19.5

---

# TGT: 17β-hydroxysteroid dehydrogenase type 1 (17β-HSD type 1) (Homo sapiens)
# Construct: expressed in transfected cells; host or cells: MCF-7
# PROTOCOL DETAILS: Inhibition of 17β-HSD type 1 in MCF-7 cells stably expressing the isoenzyme (tritium labeled estrone conversion, HPLC)
# Assay type: cell-based
# STUDY CONDITIONS: MCF7; 1 μM test compound; MCF-7 cells expressing 17β-HSD type 1; 2 nM tritium labeled estrone; read-out: % Inhibition HSD1 1 μM
# inhibition at 1 µM per entry
Dear colleague, please return just the value in %, with no unit written.

Solved cases below.
MOLECULE | inhibition at 1 µM (%)
O=c1c2c(nc(-c3ccccc3)n1Cc1ccccc1)sc1c(O)c(Br)ccc12 | 22
CCOC(=O)C1=Cc2sc3nc(-c4ccc(OC)cc4)n(Cc4ccccc4)c(=O)c3c2CC1 | -9.9
COCc1nc2sc3c(Cl)c(C=O)c(C(=O)O)c(O)c3c2c(=O)n1Cc1ccccc1 | 8.8

Kindly review the next molecule as well.
Tell me the measured inhibition at 1 µM of COc1cc(-c2nc3sc4c(c3c(=O)n2Cc2ccccc2)CCC(Br)C4=O)c(Br)c(OC)c1OC (stereo not shown) , please. 16.1

---

Measured inhibition at 1 µM accompanies every entry in the list below.
# TGT: 17β-hydroxysteroid dehydrogenase type 3 (17β-HSD type 3) (Homo sapiens)
# Construct: expressed in transfected cells; host or cells: MCF-7
# Sequence (P37058 1-310): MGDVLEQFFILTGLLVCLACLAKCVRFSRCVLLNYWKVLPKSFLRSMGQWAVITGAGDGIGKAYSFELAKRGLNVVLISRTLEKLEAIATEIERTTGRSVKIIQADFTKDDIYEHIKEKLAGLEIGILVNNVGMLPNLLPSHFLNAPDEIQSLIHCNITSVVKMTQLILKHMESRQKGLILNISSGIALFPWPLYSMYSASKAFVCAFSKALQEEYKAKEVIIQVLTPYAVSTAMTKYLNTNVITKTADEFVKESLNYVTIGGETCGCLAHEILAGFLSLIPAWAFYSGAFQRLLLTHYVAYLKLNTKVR
# PROTOCOL DETAILS: Inhibition of 17β-HSD type 3 in MCF-7 cells stably expressing the isoenzyme (tritium labeled androstenedione conversion, HPLC)
# Format: cell-based
# STUDY CONDITIONS: MCF7; 1 μM test compound; MCF-7 cells expressing 17β-HSD type 3; 2 nM tritium labeled androstenedione; read-out: % Inhibition HSD3 1 μM
Supply the numeric figure in %, leaving out any unit text.

Examples from the recorded data:
COMPOUND | inhibition at 1 µM (%)
COc1cc(-c2nc3sc4c(c3c(=O)n2Cc2ccccc2)CC(C)CC4)cc(OC)c1OC (stereo not drawn) | 1.7
CCC(C)Cn1c(-c2cc(OC)c(OC)c(OC)c2)nc2sc3c(c2c1=O)CCCC3 (stereo not drawn) | 10.9

API: the following record is the query input.
Look up inhibition at 1 µM: CC(=O)OCc1nc2sc3c(c2c(=O)n1Cc1ccccc1)CCCC3=O -1.2
